observationType: melting point

molecule=CCOC(=O)CCC(=O)c1cnc2c(OC)cccc2c1NCc1ccccc1C observationtype="melting point" experimentalvalue="152 to 155 °C"
molecule=Fc1ccc2nc(S)oc2c1F observationtype="melting point" experimentalvalue="209 to 210 °C"
molecule="CN(CC1(C)Cn2cc([N+](=O)[O-])nc2O1)C(=O)OCc1ccc(F)cc1 (stereo not given)" observationtype="melting point" experimentalvalue="169 to 170 °C"
molecule="O=C(CCCc1ccccc1)N[C@H](Cc1ccc(C(F)(F)F)cc1)[C@@H](O)c1ccc(F)cc1 (racemic)" observationtype="melting point" experimentalvalue="150 to 151 °C"
molecule="NC1(C(=O)O)CC(O)C2C(C(=O)O)C21 (stereo not given)" observationtype="melting point" experimentalvalue="78 to 80 °C"
molecule=NC(=O)c1sc2ccc(C(F)(F)F)cc2c1O observationtype="melting point" experimentalvalue="196 to 197 °C"
molecule="Clc1ccc(-c2cc(CCC3CCCNC3)c3ccccc3n2)cc1 (stereo not given)" observationtype="melting point" experimentalvalue="155 °C"
molecule=Cc1cc(-c2nncc3c(-c4ccco4)c(OCc4ncnn4C)nn23)no1 observationtype="melting point" experimentalvalue="226 to 228 °C"
molecule=COc1ccc(C(=CC(=O)N2CCOCC2)c2ccc(Oc3nc(Cl)nc(Cl)n3)cc2)cc1OC observationtype="melting point" experimentalvalue="90 to 100 °C"
molecule=CCCC(=O)NC(=O)C1c2ccccc2Oc2ccccc21 observationtype="melting point" experimentalvalue="222 °C"
